Source of measurements: the NIST ThermoML archive (doi:10.1016/j.jct.2013.02.006)

- ASSAY PROTOCOL: activity coefficient (dimensionless); of the first substance listed, at infinite dilution; xn = mol fraction of the nth substance listed
- CONDITION CONTEXT: 348.2 K; 101 kPa; Liquid; Chromatography; x1 = 0
// assign 1 if activity coefficient falls strictly below 10, else 0 (ties count as 0)

# MOLECULE, CATEGORY
measured = [
    ("C=CCCC [1-pentene] + CN1CCCC1=O", 1),
    ("CCO [ethanol] + O=CN1CCOCC1", 1),
    ("CCCCCCCCC [nonane] + O=CN1CCOCC1", 0),
    ("C#CCCCC [1-hexyne] + O=CN1CCOCC1", 1),
    ("C1CCCCCCC1 [cyclooctane] + CN1CCCC1=O", 1),
    ("C#CCCCCC [1-heptyne] + CN1CCCC1=O", 1),
    ("CCCCCCCC [octane] + O=CN1CCOCC1", 0),
    ("C1CCCCC1 [cyclohexane] + O=CN1CCOCC1", 0),
    ("CCCCCCC [heptane] + CN1CCCC1=O", 0),
    ("CCc1ccccc1 [ethylbenzene] + O=CN1CCOCC1", 1),
    ("CO [methanol] + CN1CCCC1=O", 1),
    ("CCCO [propan-1-ol] + O=CN1CCOCC1", 1),
    ("CCCCCCCCC [nonane] + CN1CCCC1=O", 0),
]

---

- ASSAY PROTOCOL: activity coefficient (dimensionless); of the first substance listed, at infinite dilution; xn = mol fraction of the nth substance listed
- CONDITION CONTEXT: 333.2 K; 101 kPa; Liquid; Chromatography; x1 = 0

# MOLECULE, activity coefficient
data = [
    ("CCCCCC [hexane] + O=CN1CCOCC1", 24.6),
    ("CCc1ccccc1 [ethylbenzene] + CN1CCCC1=O", 1.73),
    ("CCCCCCCCC [nonane] + O=CN1CCOCC1", 50.2),
    ("CCCO [propan-1-ol] + CN1CCCC1=O", 0.537),
    ("C1CCCCCCC1 [cyclooctane] + O=CN1CCOCC1", 17.7),
    ("CCCCCCCCC [nonane] + CN1CCCC1=O", 16.7),
    ("C1CCCCCCC1 [cyclooctane] + CN1CCCC1=O", 8.23),
    ("CCCCC [pentane] + O=CN1CCOCC1", 19.2),
    ("C#CCCCCCC [1-octyne] + O=CN1CCOCC1", 5.15),
    ("C#CCCCC [1-hexyne] + O=CN1CCOCC1", 3.25),
    ("C1CCCC1 [cyclopentane] + CN1CCCC1=O", 5.16),
    ("CCO [ethanol] + O=CN1CCOCC1", 1.2),
    ("C#CCCC [1-pentyne] + CN1CCCC1=O", 1.27),
    ("C1CCCCC1 [cyclohexane] + CN1CCCC1=O", 6.32),
    ("Cc1ccccc1 [toluene] + O=CN1CCOCC1", 2.71),
    ("C=CCCC [1-pentene] + CN1CCCC1=O", 4.75),
    ("c1ccccc1 [benzene] + O=CN1CCOCC1", 1.91),
    ("C#CCCCCCC [1-octyne] + CN1CCCC1=O", 2.07),
    ("CO [methanol] + O=CN1CCOCC1", 0.852),
    ("C=CCCCCCC [oct-1-ene] + CN1CCCC1=O", 8.39),
    ("CCO [ethanol] + CN1CCCC1=O", 0.606),
    ("C#CCCC [1-pentyne] + O=CN1CCOCC1", 2.56),
    ("C#CCCCC [1-hexyne] + CN1CCCC1=O", 1.47),
    ("C1CCCC1 [cyclopentane] + O=CN1CCOCC1", 10.2),
    ("C#CCCCCC [1-heptyne] + CN1CCCC1=O", 1.72),
    ("CCCCC [pentane] + CN1CCCC1=O", 8.32),
    ("CCCCCCCC [octane] + CN1CCCC1=O", 13.8),
]
